// reported DC50 per item
Biological target: IRAK4 (Homo sapiens)
Construct: endogenous in cells; host or cells: OCI-LY10
Assay: IRAK4 MSD Degradation in OCI-LY10
Format: cell-based
Settings: OCI-LY10 cells, 24 hrs incubation, read-out: IRAK4 degradation in OCI-LY10 at 24 hrs: DC50
Measured Attribute: DC50

[
  {
    "Compound": "CN(C[C@H]1CC[C@H](n2cc3cc(NC(=O)c4cccc(C(C)(C)F)n4)c(C(C)(C)O)cc3n2)CC1)[C@H]1CC[C@H](CNc2cccc3c2C(=O)N(C2CCC(=O)NC2=O)C3=O)CC1 (some centres unmarked) [I-58]",
    "Measured Attribute": "DC50",
    "Value Observed": "50 to 100 nM"
  },
  {
    "Compound": "CC(C)(O)c1cc2nn([C@H]3CC[C@H](CN4CCC5(CC4)CC(CCNc4cccc6c4C(=O)N(C4CCC(=O)NC4=O)C6=O)C5)CC3)cc2cc1NC(=O)c1cccc(C(C)(F)F)n1 (some centres unmarked) [I-250]",
    "Measured Attribute": "DC50",
    "Value Observed": "50 to 100 nM"
  },
  {
    "Compound": "COc1cc2nn([C@H]3CC[C@H](CN4CCC5(CC4)CC(CCNc4cccc6c4C(=O)N(C4CCC(=O)NC4=O)C6=O)C5)CC3)cc2cc1NC(=O)c1ccc(F)c(C)n1 (some centres unmarked) [I-121]",
    "Measured Attribute": "DC50",
    "Value Observed": "50 to 100 nM"
  },
  {
    "Compound": "CC(C)(O)c1cc2nn([C@H]3CC[C@H](CN4CCC5(CC4)CC(Nc4cccc6c4C(=O)N(C4CCC(=O)NC4=O)C6=O)C5)CC3)cc2cc1NC(=O)c1cccc(C(F)(F)F)n1 (some centres unmarked) [I-313]",
    "Measured Attribute": "DC50",
    "Value Observed": "< 50 nM"
  },
  {
    "Compound": "CN(CCCO[C@H]1C[C@H](Nc2cccc3c2C(=O)N(C2CCC(=O)NC2=O)C3=O)C1)C[C@@]1(C)Cc2cc(NC(=O)c3cnn4cccnc34)c(N3CCOCC3)cc2O1 (some centres unmarked) [I-161]",
    "Measured Attribute": "DC50",
    "Value Observed": "500 to 1000 nM"
  }
]

====

Listing of entries alongside the reported DC50.
Target: IRAK4 (Homo sapiens, UniProt Q9NWZ3)
Construct: endogenous in cells; host or cells: OCI-LY10
Sequence (Q9NWZ3 whole entry): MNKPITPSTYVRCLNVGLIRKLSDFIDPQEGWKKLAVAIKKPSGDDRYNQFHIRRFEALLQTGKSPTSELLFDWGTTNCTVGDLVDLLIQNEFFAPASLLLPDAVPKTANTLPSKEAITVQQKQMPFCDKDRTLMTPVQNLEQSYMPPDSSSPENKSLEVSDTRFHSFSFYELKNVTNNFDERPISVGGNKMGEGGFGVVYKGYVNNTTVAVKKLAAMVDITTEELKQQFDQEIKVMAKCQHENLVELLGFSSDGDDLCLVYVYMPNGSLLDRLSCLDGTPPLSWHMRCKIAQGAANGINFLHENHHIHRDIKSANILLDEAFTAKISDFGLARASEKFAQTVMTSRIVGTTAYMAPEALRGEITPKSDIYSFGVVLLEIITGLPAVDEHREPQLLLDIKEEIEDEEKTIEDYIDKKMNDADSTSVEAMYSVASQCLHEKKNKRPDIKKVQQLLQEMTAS
Assay: IRAK4 MSD Degradation in OCI-LY10
Format: cell-based
Settings: OCI-LY10 cells, 4 hrs incubation, read-out: IRAK4 degradation in OCI-LY10 at 4 hrs: DC50
Measured Attribute: DC50

[
  {
    "Compound": "Cn1c(=O)n(C2CCC(=O)NC2=O)c2cccc(CCN3CCN(C[C@H]4CC[C@H](n5cc6cc(NC(=O)c7cccc(C(F)(F)F)n7)c(C(C)(C)O)cc6n5)CC4)CC3)c21 (some centres unmarked)",
    "Value Observed": "< 0.05 µM"
  },
  {
    "Compound": "Cn1c(=O)n(C2CCC(=O)NC2=O)c2cccc(CCC3CC4(CCN(C[C@H]5CC[C@H](n6cc7cc(NC(=O)c8ccccn8)c(C(C)(C)O)cc7n6)CC5)CC4)C3)c21 (some centres unmarked)",
    "Value Observed": "0.05 to 0.1 µM"
  },
  {
    "Compound": "Cn1c(=O)n(C2CCC(=O)NC2=O)c2cccc(C3CCN(C[C@H]4CC[C@H](n5cc6cc(NC(=O)c7cccc(C(C)(C)F)n7)c(C(F)F)cc6n5)CC4)CC3)c21 (some centres unmarked)",
    "Value Observed": "0.05 to 0.1 µM"
  },
  {
    "Compound": "Cn1c(=O)n(C2CCC(=O)NC2=O)c2cccc(CCC3CC4(CCN(C[C@H]5CC[C@H](n6cc7cc(NC(=O)c8cccc(OC(F)(F)F)n8)c(C(C)(C)O)cc7n6)CC5)CC4)C3)c21 (some centres unmarked) [I-204]",
    "Value Observed": "0.05 to 0.1 µM"
  },
  {
    "Compound": "CN(C[C@H]1CC[C@H](n2cc3cc(NC(=O)c4cccc(C(F)(F)F)n4)c(N4CCOCC4)cc3n2)CC1)C1CCN(c2cccc3c2n(C)c(=O)n3C2CCC(=O)NC2=O)CC1 (some centres unmarked)",
    "Value Observed": "< 0.05 µM"
  }
]
